system.under.test: UniProtKB Q81A53
Sequence (Q81A53 22-321): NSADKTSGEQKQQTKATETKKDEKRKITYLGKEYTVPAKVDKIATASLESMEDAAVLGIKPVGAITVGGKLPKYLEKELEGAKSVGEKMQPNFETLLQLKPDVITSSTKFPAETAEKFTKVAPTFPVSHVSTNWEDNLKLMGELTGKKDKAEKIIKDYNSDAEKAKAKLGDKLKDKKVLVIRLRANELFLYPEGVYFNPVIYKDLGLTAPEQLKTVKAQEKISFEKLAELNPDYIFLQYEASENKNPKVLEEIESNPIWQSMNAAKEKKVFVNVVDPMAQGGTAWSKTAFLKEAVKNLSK
protocol.notes: biochemical
Format: binding, B. cereus ATCC 14579
assay.metric: pKd
By convention, pKd is the negative base-10 log of a molar concentration.

Q: Recorded pKd for O=C(N[C@H]1COC(=O)[C@@H](NC(=O)c2cccc(O)c2O)COC(=O)[C@@H](NC(=O)c2cccc(O)c2O)COC1=O)c1cccc(O)c1O , please?
A: 7.44

###

system.under.test: FpuA (Bc_4528) (Bacillus cereus, UniProt Q817L3)
Sequence (Q817L3 19-324): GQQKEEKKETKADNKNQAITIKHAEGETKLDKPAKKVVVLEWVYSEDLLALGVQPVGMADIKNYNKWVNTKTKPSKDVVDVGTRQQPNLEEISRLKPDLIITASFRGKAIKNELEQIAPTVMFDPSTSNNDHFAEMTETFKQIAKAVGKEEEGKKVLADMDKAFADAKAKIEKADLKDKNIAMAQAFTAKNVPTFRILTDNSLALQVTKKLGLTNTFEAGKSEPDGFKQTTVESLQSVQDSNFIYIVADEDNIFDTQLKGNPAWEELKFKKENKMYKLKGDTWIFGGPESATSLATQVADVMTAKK
assay.metric: pKd
By convention, pKd is the negative base-10 log of a molar concentration.

Q: Recorded pKd for O=C(CC(O)(CC(=O)NCCCCNCCCNC(=O)c1ccc(O)c(O)c1)C(=O)O)NCCCCNCCCNC(=O)c1ccc(O)c(O)c1 [PB, petrobactin] , please?
A: 7.64
